# Method Description: in vivo
# Measurement Parameters: rat, po, 2 mg/kg
Items are presented alongside their recorded bioavailability.
# number only, unit % dropped from output

What the record says about CCC(=O)NC1CCCc2c(-c3cc4ccc(=O)n(C)c4s3)cncc21 (single isomer, unassigned) [Compound 023] : bioavailability is 109

Switching to the query record.
What the record says about CCC(=O)NC1CCCc2c(-c3cc4c(s3)N(C)C(=O)CC4)cncc21 (single isomer, unassigned) [Compound 017] : bioavailability is 115

###

# System: MDR1-MDCKII cells
# Method Description: Permeability test (MDR1-MDCKII monolayer, bidirectional transport)
# Type: in vitro ADME
# Measurement Parameters: 2 µM, ER = Papp (BA)/ Papp (AB), 150 min
Entry flag: T if Efflux ratio (ER) reaches 0.9; F if it does not.

Some solved cases for reference:
Exercise: Reported Efflux ratio (ER) at or above 0.9? CCC(=O)NC1CCOc2c(-c3cc4c(s3)N(C)C(=O)CC4)cncc21 (single isomer, unassigned)
Solution: T

Exercise: Reported Efflux ratio (ER) at or above 0.9? CCC(=O)NC1CCCc2c(-c3cc4c(cc3F)N(C)C(=O)CO4)cncc21 (single isomer, unassigned)
Solution: F

Exercise: Reported Efflux ratio (ER) at or above 0.9? CCC(=O)N[C@@H]1CCCc2c(-c3ccc4c(ccc(=O)n4C)c3)cncc21 (single isomer, unassigned)
Solution: T

Exercise: Reported Efflux ratio (ER) at or above 0.9? CCC(=NOC)NC1CCCc2c(-c3ccc4c(c3)CCC(=O)N4C)cncc21 (single isomer, unassigned)
Solution: F

Proceed to the following item.
Exercise: Reported Efflux ratio (ER) at or above 0.9? CCC(=O)NC1CCOc2c(-c3cc4ccc(=O)n(C)c4s3)cncc21 (single isomer, unassigned)
Solution: T

Data credit: patent EP4711361A1
